B1: library; numbered along this chain (parent)
chain: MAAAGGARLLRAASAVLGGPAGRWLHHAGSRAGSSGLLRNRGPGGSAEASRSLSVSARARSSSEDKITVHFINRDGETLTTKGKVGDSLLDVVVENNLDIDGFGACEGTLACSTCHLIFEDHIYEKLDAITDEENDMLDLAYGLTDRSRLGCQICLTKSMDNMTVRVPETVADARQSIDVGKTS

- Variants of: B1
- measurement-protocol: scaled log2 fold change in cell abundance, elesclomol vs control (0 = silent mean, 1 = nonsense mean) (scaled log2 ratio); higher = higher viability under elesclomol (loss of FDX1 cuproptosis function);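 also: variant abundance is its share of total variant reads in each endpoint sample, from next-generation sequencing of the integrated ORF PCR-amplified out of genomic DNA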
- condition-label: with ABC1 FDX1 KO; elesclomol 5 nM; glucose 10 mM; 14 days
Below is a list of entries, each paired with its recorded scaled log2 fold change value.
Response field accepts a number only; no unit should be typed.

Solved cases (4 shown):
>>> numeric_value("L38R")
0.333
>>> numeric_value("L10T")
0.0611
>>> numeric_value("D161S")
0.299
>>> numeric_value("A49R")
0.181

Ask: Dear colleague, please send me the reported scaled log2 fold change for T145E when you can.
Reply: -0.0343

Ask: Dear colleague, please send me the reported scaled log2 fold change for R175Q when you can.
Reply: -1.39

Ask: Dear colleague, please send me the reported scaled log2 fold change for G181C when you can.
Reply: -0.0449

Ask: Dear colleague, please send me the reported scaled log2 fold change for S148L when you can.
Reply: 0.386

Ask: Dear colleague, please send me the reported scaled log2 fold change for S159F when you can.
Reply: -0.798

Hey, just so you know, these numbers are from the supplement of paper PMC12855868.
